- method-notes: in vitro
- condition-parameters: human, 25% human serum
- Procedure: Proteolytic stability of the peptides were determined in diluted human serum (1:4 v/v, serum:PBS) at 37°C followed by LC-MS analysis. To examine the intact peptide after serum incubation, aliquots of each incubation mixture were taken at each time point for LC-MS analysis (Figure 5). Peptide stability was assayed in diluted human serum. […] The samples were centrifuged at 13000 g for 10 min and the supernatant was analyzed by LC-MS.
Where no end group is shown, it is not given here.
measured-attribute: remaining at 10 min

Form field: reported remaining at 10 min of RLFDKIRQVIRK [retro-KR-12]
~20%
